Molecular target: recombinant PKR1 (Homo sapiens (Human), UniProt Q8TCW9)
Sequence (Q8TCW9 whole entry, looked up): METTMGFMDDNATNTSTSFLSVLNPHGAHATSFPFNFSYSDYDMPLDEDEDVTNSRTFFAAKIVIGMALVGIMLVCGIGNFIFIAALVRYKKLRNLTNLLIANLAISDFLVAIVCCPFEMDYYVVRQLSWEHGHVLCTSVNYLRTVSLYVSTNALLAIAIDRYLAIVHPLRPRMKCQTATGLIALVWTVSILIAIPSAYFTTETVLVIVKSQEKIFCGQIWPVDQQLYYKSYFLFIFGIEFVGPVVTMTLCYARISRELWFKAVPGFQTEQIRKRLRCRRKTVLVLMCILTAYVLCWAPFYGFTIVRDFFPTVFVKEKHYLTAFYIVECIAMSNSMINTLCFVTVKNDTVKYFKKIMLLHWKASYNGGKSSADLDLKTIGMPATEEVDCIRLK
Assay: Aequorin-based Ca2+ mobilization antagonist assay, CHO cells expressing PKR1
Type: cell-based
assay_readout: Ki (µM)

Guide cases for Ki, answers given:
compound	unit_tag	Ki
CC(C)CN(Cc1cc(Cl)c2c(c1)OCCCO2)C(=O)C1CN(Cc2cccc3c2ccn3C)CCO1 (racemic)	µM	0.0125
Cc1cccc(C)c1CNCC(C)C(=O)N(Cc1cc(Cl)c2c(c1)OCCCO2)CC(C)C (racemic)	µM	0.044
CCc1cccc(CN2CC[C@@H](C(=O)N(Cc3cc(Cl)c4c(c3)OCCCO4)CC(C)C)C2)c1	µM	0.0888

1: CC(C)CN(Cc1cc(Cl)c2c(c1)OCCCO2)C(=O)C1CCN(Cc2ccccc2)O1 (racemic)
2: CC(C)CN(Cc1cc(Cl)c2c(c1)CCCCO2)C(=O)C1CN(Cc2cccc3cc[nH]c23)CCO1 (racemic)
Please let me know which one, 1 or 2 , has a lower measured Ki value. Field: selected label. Fill in the label of the entry you choose.
2
(2: 0.00402 µM, 1: 2.2 µM)

I: CCc1c(C)cccc1CNCC(C)C(=O)N(Cc1cc(Cl)c2c(c1)OCCCO2)CC(C)C (racemic)
II: COc1ccccc1CN1CCC[C@@H](C(=O)N(Cc2ccc3c(c2)OCCCO3)CC(C)C)C1
III: CC(C)CN(Cc1cc(Cl)c2c(c1)CCCCO2)C(=O)[C@@H]1CCCN(Cc2cccc3ccn(C)c23)C1
Please put the entries in order of rising Ki. Field: ranking. Enter the labels in the order requested.
III, II, I
(III: 0.00942 µM, II: 0.0386 µM, I: 0.226 µM)

1: Cc1cccc(CN2CCC[C@@H](C(=O)N(Cc3cc(Cl)c4c(c3)OCCCO4)CC(C)C)C2)c1
2: Cc1cccc(CNCC(C)C(=O)N(Cc2cc(Cl)c3c(c2)OCCCO3)CC(C)C)c1 (racemic)
When their Ki values are compared, which is larger, 1 or 2 ? Field: selected label. Fill in the label of the entry you choose.
2
